- TARGET: UniProt:Q92918
- Sequence (Q92918 1-346 limits assumed): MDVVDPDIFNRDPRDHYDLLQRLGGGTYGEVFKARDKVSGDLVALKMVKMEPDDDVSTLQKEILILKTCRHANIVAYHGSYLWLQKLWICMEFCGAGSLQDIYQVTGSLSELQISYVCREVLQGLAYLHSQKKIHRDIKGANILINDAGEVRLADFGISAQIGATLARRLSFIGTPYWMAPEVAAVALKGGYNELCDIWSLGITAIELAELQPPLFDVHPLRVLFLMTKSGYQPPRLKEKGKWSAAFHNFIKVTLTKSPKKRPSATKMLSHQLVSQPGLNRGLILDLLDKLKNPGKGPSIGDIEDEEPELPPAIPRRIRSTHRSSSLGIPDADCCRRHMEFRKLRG
- ASSAY_SUMMARY: HPK1 kinase activity assay (ADP-Glo)
- TEST_PARAMETERS: HPK1 Kinase activity IC50 (nM), 1 nM HPK1, 10 μM ATP, 0.1 μg/μL MBP
Structures can show the parent of a compound that is named as a salt.
Parameter: IC50. Scope: all listed entries.
Entry rule: numbers only, all in nM.

compound=CNCc1cc(-c2cnc3[nH]cc(C)c3c2)cc2c1COCC2 value=3.3
compound=COC1(C(=O)N2CCc3cc(-c4cnc5[nH]cc(C)c5c4)cc([C@@H]4CCCN4)c3C2)CC1 value=0.45
compound=Cc1c[nH]c2ncc(-c3cc4c(c([C@@H]5CCCN5)c3)CN(C(=O)N3CCOC[C@H]3C)CC4)cc12 value=0.23
compound="Cc1c[nH]c2ncc(-c3cc4c(c(C5CCCN5)c3)COCC4)cc12 (stereo not drawn)" value=1.54
compound=Cc1c[nH]c2ncc(-c3cc4c(c([C@@H]5CCCN5)c3)CCN(CC(F)(F)F)C4)cc12 value=2.06
compound=Cc1c[nH]c2ncc(-c3cc4c(c(CNC(C)C)c3)COCC4)cc12 value=5.81

Prompt: Retrieve IC50 measured for `COC(=O)N1CCc2cc(-c3cnc4[nH]cc(C)c4c3)cc([C@@H]3CCCN3)c2C1` and print it.
Completion: 0.55

Prompt: Consider the compound `Cc1c[nH]c2ncc(-c3cc4c(c([C@@H]5CCCN5)c3)CN(C(=O)c3cc(C)n(C)n3)CC4)cc12` . State its measured IC50.
Completion: 1.02

Prompt: Read off the recorded IC50 for Cc1c[nH]c2ncc(-c3cc([C@H]4CCCN4)c4cnccc4c3)cc12 (single isomer, unassigned)
Completion: 3.37

Prompt: Annotate the compound `Cc1ncc(C(=O)N2CCc3cc(-c4cnc5[nH]cc(C)c5c4)cc([C@@H]4CCCN4)c3C2)c(C(F)(F)F)n1` with its measured IC50.
Completion: 0.47

Prompt: Please list IC50 recorded for the compound Nc1ncc(-c2cc3c(c(C4CCCN4)c2)COCC3)cc1-c1cn[nH]c1 (stereo not drawn) [Compound Z93, formate]
Completion: 1.62

Prompt: Respond only with IC50 recorded for `Cc1ncc(N2CCc3c(cc(-c4cnc5[nH]cc(C)c5c4)cc3[C@@H]3CCCN3)C2)s1`
Completion: 2.97

Prompt: Given `Cc1c[nH]c2ncc(-c3cc4c(c([C@@H]5CCCN5)c3)CN(C(=O)[C@H](O)c3ccccc3)CC4)cc12` , respond with its IC50.
Completion: 1.35

Prompt: Retrieve IC50 measured for Nc1ncc(-c2cc3c(c([C@@H]4CCCN4)c2)COCC3)cc1-c1cn[nH]c1 (single isomer, unassigned) and print it.
Completion: 0.71

Prompt: Give me measured IC50, please, for this compound: `Cc1cc(C(=O)N2CCc3cc(-c4cnc5[nH]cc(C)c5c4)cc([C@@H]4CCCN4)c3C2)ncn1`
Completion: 0.7

Origin of the recorded values: patent US20240182465A1
